All values here come from paper PMC4336329.

Biological target: human ether-à-go-go-related gene (hERG) potassium channel (human, UniProt Q12809);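 also: peak tail current of the secondary pulse compared with the same well before compound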
Sequence (Q12809 whole entry, looked up): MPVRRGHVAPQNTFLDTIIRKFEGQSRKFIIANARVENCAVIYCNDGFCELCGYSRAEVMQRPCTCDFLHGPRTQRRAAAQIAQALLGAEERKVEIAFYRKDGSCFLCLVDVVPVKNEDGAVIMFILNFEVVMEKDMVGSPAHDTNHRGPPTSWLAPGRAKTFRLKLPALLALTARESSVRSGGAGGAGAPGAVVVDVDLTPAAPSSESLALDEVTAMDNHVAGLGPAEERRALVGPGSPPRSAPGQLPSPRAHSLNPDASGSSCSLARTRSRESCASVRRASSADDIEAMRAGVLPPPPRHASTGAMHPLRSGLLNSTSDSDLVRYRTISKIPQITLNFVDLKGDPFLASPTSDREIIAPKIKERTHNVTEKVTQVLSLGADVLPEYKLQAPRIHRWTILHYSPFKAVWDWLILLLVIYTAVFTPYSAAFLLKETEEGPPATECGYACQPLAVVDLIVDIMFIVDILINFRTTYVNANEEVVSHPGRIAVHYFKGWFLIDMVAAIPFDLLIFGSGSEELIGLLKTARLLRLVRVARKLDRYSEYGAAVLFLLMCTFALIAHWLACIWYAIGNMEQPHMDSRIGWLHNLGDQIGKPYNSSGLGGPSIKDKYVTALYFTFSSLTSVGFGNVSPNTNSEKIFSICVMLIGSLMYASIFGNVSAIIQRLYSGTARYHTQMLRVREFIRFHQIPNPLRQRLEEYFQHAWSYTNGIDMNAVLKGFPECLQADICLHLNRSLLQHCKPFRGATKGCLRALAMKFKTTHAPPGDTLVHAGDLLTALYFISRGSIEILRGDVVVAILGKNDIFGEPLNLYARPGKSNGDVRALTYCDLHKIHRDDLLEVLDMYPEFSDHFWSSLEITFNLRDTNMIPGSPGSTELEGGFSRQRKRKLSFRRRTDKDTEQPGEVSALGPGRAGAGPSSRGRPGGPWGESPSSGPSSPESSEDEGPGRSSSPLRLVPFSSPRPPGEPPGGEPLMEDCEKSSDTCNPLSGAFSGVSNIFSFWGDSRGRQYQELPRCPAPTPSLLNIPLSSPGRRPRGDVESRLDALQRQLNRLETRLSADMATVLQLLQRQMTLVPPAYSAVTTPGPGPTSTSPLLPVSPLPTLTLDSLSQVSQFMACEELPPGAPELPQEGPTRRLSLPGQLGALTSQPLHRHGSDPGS
Assay: primary screen, population patch clamp on CHO cells stably expressing hERG; higher = less effect of the substance
Among all 310,000 compounds or so, about 14,000 (4.5%) showed an effect of 50% or more. Effects have a minus sign here. The sample holds strong results, similar compounds and a random draw of the others, so the mix is not that of the screen.
This listing pairs compounds with measured hERG current change (%, negative = inhibition) at 10uM.
property-name: hERG current change (%, negative = inhibition) at 10uM (%)

- compound: "O=S1(=O)C=CC(Nc2ccccc2)C1 (stereo not shown)"
  readout-units: "%"
  val: -76
- compound: "COC(=O)c1sccc1NC(=O)c1ccccc1F"
  readout-units: "%"
  val: 15.3
- compound: "O=C(CCl)Nc1nc(-c2ccco2)c(-c2ccco2)s1"
  readout-units: "%"
  val: -10.1
- compound: "COc1ccccc1C(CNC(=O)CNC(=O)c1ccc(C)c(C)c1)N1CCCC1 (stereo not shown)"
  readout-units: "%"
  val: -6.27
- compound: "CC(C)Oc1ccc(C(=O)NC2CCN(Cc3ccccc3)CC2)cc1"
  readout-units: "%"
  val: -60.8
- compound: "COc1ccccc1NC(=S)N1CCc2cc(OC)c(OC)cc2C1"
  readout-units: "%"
  val: -0.62
- compound: "N#Cc1cc2c(=O)n3ccccc3nc2n(CCCN2CCOCC2)c1=O"
  readout-units: "%"
  val: -24.3
- compound: "Cc1ccc(CN2CCC(NC(=O)c3ccccc3)CC2)cc1"
  readout-units: "%"
  val: -75
- compound: "CCOC(=O)C1(CCc2ccccc2)CCN(C(=O)c2cc(C)nc(C)n2)CC1"
  readout-units: "%"
  val: -11
- compound: "COc1ccc(NC2C=CS(=O)(=O)C2)cc1 (stereo not shown)"
  readout-units: "%"
  val: 0.937
- compound: "Cc1ccc(NC(=O)CN2CCOCC2)cc1"
  readout-units: "%"
  val: 14.1
- compound: "CC(C)Oc1ccc(C(=O)NC2CCCCC2)cc1"
  readout-units: "%"
  val: 10.3
- compound: "CCOc1ccc(NC(=O)COC(=O)c2c(OC)cccc2OC)cc1"
  readout-units: "%"
  val: -1.27
- compound: "Cc1ccc(CN2CCSc3ccc(C(=O)NC4CCN(Cc5ccccc5)CC4)cc32)cc1"
  readout-units: "%"
  val: 8.21
- compound: "N#Cc1ccccc1Sc1ccccc1C(=O)NCC(c1ccco1)N1CCCCC1 (stereo not shown)"
  readout-units: "%"
  val: -19
- compound: "CC#CC(=O)N1CCC(CO)(CCc2ccccc2)CC1"
  readout-units: "%"
  val: 1.33
- compound: "O=C(NC1CCN(Cc2ccc3ccccc3c2)CC1)c1ccccc1"
  readout-units: "%"
  val: -66.3
- compound: "CCCCOc1ccc(C(=O)NCC(=O)NC2CCN(Cc3ccccc3)CC2)cc1"
  readout-units: "%"
  val: -25.6
- compound: "CCN(CC)S(=O)(=O)c1ccc(OC)c(NS(=O)(=O)c2ccc(F)cc2)c1"
  readout-units: "%"
  val: -10.5
- compound: "CCOC(=O)C1(CCc2ccccc2)CCN(C(=O)c2occc2C)CC1"
  readout-units: "%"
  val: -63.3
- compound: "Cn1c2c(c(=O)n(C)c1=O)C(CC(=O)Nc1ccccc1)C(=O)N2 (stereo not shown)"
  readout-units: "%"
  val: 2.49
- compound: "Cc1ccc2c(c1)N(CCCC(=O)NCCC1=CCCCC1)C(=O)CO2"
  readout-units: "%"
  val: -9.81
